System: T. cruzi (Tulahuen strain)
Assay: microbe, parasite or virus in culture
Format: cell-based, Trypanosoma cruzi
Conditions: Trypanosoma cruzi, TULAHUEN, Fibroblast, 120 h, intracellular amastigotes, 5 days; separate assays separated by semicolons; read-out: T. cruzi EC50
reported-property: pEC50
In simple prose, pEC50 is minus the logarithm base ten of a concentration in moles per litre.

response.value for Clc1ccc(C(OCCN2CCCCC2)c2ccccc2)cc1 (stereo not drawn) (field: pEC50) = 5.24

response.value for COc1cc(NC(C)CCCN)c2ncccc2c1 (stereo not drawn) (field: pEC50) = 6.52

response.value for `CN(C)CCC=C1c2ccccc2CCc2ccccc21` (field: pEC50) = 5.45

response.value for Cl.Fc1ccc(C2CCNCC2COc2ccc3c(c2)OCO3)cc1 (stereo not drawn) (field: pEC50) = 5.48

response.value for `CN(C/C=C/C#CC(C)(C)C)Cc1cccc2ccccc12` (field: pEC50) = 4.76

response.value for `Oc1ncnc2[nH]ncc12` (field: pEC50) = 5.55

response.value for `CCc1nc(N)nc(N)c1-c1ccc(Cl)cc1` (field: pEC50) = 5.42

response.value for `Nc1nc(N)c2nc(-c3ccccc3)c(N)nc2n1` (field: pEC50) = 5.78

response.value for CN(C)c1ccc(O)c2c1CC1CC3C(N(C)C)C(O)=C(C(N)=O)C(=O)C3(O)C(O)=C1C2=O.Cl (stereo not drawn) (field: pEC50) = 5.01

----------
Test system: T. cruzi (Tulahuen strain)
Experiment: microbe, parasite or virus in culture
Type: cell-based, Trypanosoma cruzi
Settings: Trypanosoma cruzi, TULAHUEN, Fibroblast, 120 h, 10 uM, Table S2; read-out: T. cruzi % growth @ 10 uM (Amastigotes)
Kind request: treat 10% as inclusive, so activity at 10 µM at 10% or higher is yes, anything lower is no.

Say whether O=c1c(O)c(-c2ccccc2)oc2cccc(O)c12 [3,5-DIHYDROXYFLAVONE] shows activity at 10 µM of 10% or more.
yes

Say whether `COC(=O)c1cc(O)c(=O)c2c(O)c(O)ccc2c1` shows activity at 10 µM of 10% or more.
yes

Say whether O=c1cc(-c2ccccc2)oc2c(O)c(O)ccc12 [7,8-DIHYDROXYFLAVONE, 7,8-dihydroxy-2-phenyl-4H-chromen-4-one] shows activity at 10 µM of 10% or more.
no

Say whether `CCN(CC)CCOc1ccc(C(=C(Cl)c2ccccc2)c2ccccc2)cc1` shows activity at 10 µM of 10% or more.
yes

Say whether COC(=O)CC1C(C)(C)C(OC(C)=O)C2C(OC(C)=O)C34OC2(O)C1(C)C3CCC1(C)C4=CC(=O)OC1c1ccoc1 (centres unmarked) [[…]] shows activity at 10 µM of 10% or more.
no

----------
Tested on: T. cruzi (Tulahuen strain)
Experiment: microbe, parasite or virus in culture
Format: cell-based, Trypanosoma cruzi
Settings: Trypanosoma cruzi, TULAHUEN, Fibroblast, 120 h, 10 uM, Table S2; read-out: T. cruzi % growth @ 10 uM (Amastigotes)
Kind request: treat 6% as inclusive, so activity at 10 µM at 6% or higher is y, anything lower is n.

Say whether `CCOc1ccc(Cc2nccc3cc(OCC)c(OCC)cc23)cc1OCC` shows activity at 10 µM of 6% or more.
n

Say whether `CN(C)CCC=C1c2ccccc2CCc2ccccc21` shows activity at 10 µM of 6% or more.
y

Say whether Oc1cc2c(cc1O)C1c3ccc(O)c(O)c3OCC1(O)C2 (centres unmarked) shows activity at 10 µM of 6% or more.
n

Say whether CCCCCCCCCCCCCC(=O)O[C@@H]1[C@@H](C)[C@@]2(O)[C@@H](C=C(CO)C[C@]3(O)C(=O)C(C)=C[C@@H]23)[C@@H]2C(C)(C)[C@]12OC(C)=O [PHORBOL MYRISTATE ACETATE] shows activity at 10 µM of 6% or more.
n

Say whether `Cc1nc2ccccn2c(=O)c1CCN1CCC(C(=O)c2ccc(F)cc2)CC1` shows activity at 10 µM of 6% or more.
y

Say whether `Nc1nc(N)c2nc(-c3ccccc3)c(N)nc2n1` shows activity at 10 µM of 6% or more.
y

Say whether CC(=O)OC1c2c(ccc3ccc(=O)oc23)OC(C)(C)C1OC(=O)CC(C)C (centres unmarked) [DIHYDROSAMIDIN] shows activity at 10 µM of 6% or more.
y

Say whether `CC(=O)N1CCN(c2ccc(OC[C@H]3CO[C@](Cn4ccnc4)(c4ccc(Cl)cc4Cl)O3)cc2)CC1` shows activity at 10 µM of 6% or more.
n

----------
Test: in vitro
Type: cell-based, murine
Settings: mouse, 3T3 fibroblasts, 72 hours; separate assays separated by semicolons; read-out: Mammalian cell CC50
reported-property: CC50 (µM)
The reply should contain only the number, in µM.

response.value for `CCc1nc(N)nc(N)c1-c1ccc(Cl)cc1` (field: CC50) = 28.5

response.value for `CN(C)CC/C=C1/c2ccccc2Sc2ccc(Cl)cc21` (field: CC50) = 12.9

response.value for `Nc1nc(N)c2nc(-c3ccccc3)c(N)nc2n1` (field: CC50) = 23

response.value for Cl.OC(c1cc(C(F)(F)F)nc2c(C(F)(F)F)cccc12)C1CCCCN1 (stereo not shown) (field: CC50) = 12.1

response.value for Clc1ccc(C(OCCN2CCCCC2)c2ccccc2)cc1 (stereo not shown) (field: CC50) = 21.4

response.value for `CN(C)CCC=C1c2ccccc2CCc2ccccc21` (field: CC50) = 36.3

response.value for `CN(C/C=C/C#CC(C)(C)C)Cc1cccc2ccccc12` (field: CC50) = 51

response.value for CSc1ccc2c(c1)N(CCC1CCCCN1C)c1ccccc1S2 (stereo not shown) (field: CC50) = 6.2

response.value for NCCC(O)(P(=O)(O)O)P(=O)(O)O [Pamidronate] (field: CC50) = 25.7

----------
Tested on: T. cruzi (Tulahuen strain)
Test: microbe, parasite or virus in culture
Type: cell-based, Trypanosoma cruzi
Details: Trypanosoma cruzi, TULAHUEN, Fibroblast, 120 h, 10 uM, Table S2; read-out: T. cruzi % growth @ 10 uM (Amastigotes)
Counter-ions that a name gives are not always drawn.
reported-property: activity at 10 µM
Quick note: unit goes after the number.

response.value for COc1cc2nc(N3CCN(C(=O)c4ccco4)CC3)nc(N)c2cc1OC [PRAZOSIN HYDROCHLORIDE] (field: activity at 10 µM) = 1.8%

response.value for `COc1cc(O)c2c(c1)C(=O)c1cc(C)cc(O)c1C2=O` (field: activity at 10 µM) = 9.2%

response.value for N#Cc1nn(-c2c(Cl)cc(C(F)(F)F)cc2Cl)c(N)c1[S+]([O-])C(F)(F)F (stereo not shown) (field: activity at 10 µM) = 3.7%

response.value for CN(C)c1ccc(O)c2c1CC1CC3C(N(C)C)C(O)=C(C(N)=O)C(=O)C3(O)C(O)=C1C2=O.Cl (stereo not shown) (field: activity at 10 µM) = 10.2%

response.value for CC(C)CC1C(=O)N2CCCC2C2(O)OC(NC(=O)C3C=C4c5cccc6[nH]c(Br)c(c56)CC4N(C)C3)(C(C)C)C(=O)N12 (stereo not shown) [BROMOCRIPTINE MESYLATE] (field: activity at 10 µM) = 2%

response.value for CCCCCC(=O)O[C@]1(C(C)=O)CC[C@H]2C3CCC4=CC(=O)CCC4(C)[C@H]3CCC21C (stereo partly shown) [HYDROXYPROGESTERONE CAPROATE] (field: activity at 10 µM) = 1.8%

response.value for Cl.OC(c1cc(C(F)(F)F)nc2c(C(F)(F)F)cccc12)C1CCCCN1 (stereo not shown) (field: activity at 10 µM) = 2.6%

----------
Test system: T. cruzi (Tulahuen strain)
Assay: microbe, parasite or virus in culture
Assay type: cell-based, Trypanosoma cruzi
Conditions: Trypanosoma cruzi, TULAHUEN, Fibroblast, 120 h, 10 uM, Table S1; read-out: T. cruzi % growth @ 10 uM (Amastigotes)
Description: Compounds were tested against T. cruzi (Tulahuen strain) stably expressing the beta-galactosidase gene as previously described. […] Fibroblasts were plated at a density of 2×10^3 per well in 96 well tissue culture plates. […] Z-prime values were calculated for each 96-well plate based on positive (4 wells) and negative controls (4 wells).
Counter-ions that a name gives are not always drawn.
reported-property: activity at 10 µM (%)
The reply should contain only the number, in %.

Tested system T. cruzi (Tulahuen strain); activity at 10 µM recorded for CCN(CCO)CCCC(C)Nc1ccnc2cc(Cl)ccc12 (stereo not shown) [HYDROXYCHLOROQUINE SULFATE] was 0.1

Tested system T. cruzi (Tulahuen strain); activity at 10 µM recorded for CC(=O)OC1C(=O)C2(C)C(O)CC3OCC3(OC(C)=O)C2C(OC(=O)c2ccccc2)C2(O)CC(OC(=O)C(O)C(NC(=O)c3ccccc3)c3ccccc3)C(C)=C1C2(C)C (stereo not shown) was 0.2

Tested system T. cruzi (Tulahuen strain); activity at 10 µM recorded for C=C1C(=O)OC2CC1C(OC(C)=O)CC(C)=CCCC(C)=CCCC2(C)O (stereo not shown) [CRASSIN ACETATE] was 0.2

Tested system T. cruzi (Tulahuen strain); activity at 10 µM recorded for `CCN(CC)C(=S)SSC(=S)N(CC)CC` was 0.3
